Target: T1, human BR3 extracellular domain (human, UniProt Q96RJ3 1-61)
T1 construct: biotinylated where used as tracer; also called hBR3-ECD; BR3-ECD
Test: SPR, BR3 ECD on chip;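 further: Anti-BR3 antibodies passed over the chip at high flow in PBS with 0.05% polysorbate 20, on and off rates fitted together globally to a 1:1 binding model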
measured endpoint: koff (s⁻¹)
# unit: s⁻¹ | format: bare number

Measured koff of Hu2.1-40L Fab (Fab, V domains shown, Fab) VH: EVQLVESGGGLVQPGGSLRLSCAASGDSITRGYWNWVRQAPGKGLEWVGYINYSGTTYYNPSLKSRFTISRDTSKNTLYLQMNSLRAEDTAVYYCATTLPYGAMDYWGQGTLVTVSS VL: DIQMTQSPSSLSASVGDRVTITCRASESVDDYGISFMHWYQQKPGKAPKLLIYRASDLESGVPSRFSGSGSGTDFTLTISSLQPEDFATYYCQQTSKDPWTFGQGTKVEIKR : 0.00156

Measured koff of murine monoclonal antibody 2.1 (antibody, V domains shown, mouse hybridoma IgG; also called 2.1 IgG; mu2.1) VH: EVQLQESGPSLVKPSQTLSLTCSVTGDSITRGYWNWIRKFPGNKLEFMGYINYSGTTYYNPSLKSRISITRDTSKNQYYLQLNSVTTEDTATYYCATPHTYGAMDYWGQGTTLTVSA VL: DIVLTQSPVSLAVSLGQRATISCRASESVDDYGISFMHWYQQKPGQPPKLLIYRASDLESGIPARFSGSGSGTDFTLTINPVETDDVAIYYCQQTSKDPWTFGGGT : 5.2e-05

Measured koff of Hu11G9-46 IgG (antibody, V domains shown, humanized IgG) VH: EVQLVESGGGLVQPGGSLRLSCAASGDSITSGYWNWVRQAPGKGLEWVGYISYSGSTYYNPSLKSRFTISRDTSKNTFYLQMNSLRAEDTAVYYCAGLNDLYLYFDVWGQGTLVTVSS VL: DIQMTQSPSSLSASVGDRVTITCRSSQSLVHSNGNTYLHWYQQKPGKAPKLLIYKVSNRFSGVPSRFSGSGSGTDFTLTISSLQPEDFATYYCSQSTHVPPFTFGQGTKVEIKR : 4.2e-05
